Data provenance: ChEMBL document CHEMBL4513216

protocolDescription: Toxicity liver stage against HepG2, at 10uM
Format: cell-based
Set-up: test concentration 10 uM, cell line HepG2-A16-CD81EGFP
runConditions: human, HepG2-A16-CD81EGFP cells; read-out: INHIBITION
cytotoxicity at 10 µM listing for selected compounds.
quantityName: cytotoxicity at 10 µM (%)

{"compound": "COCCN1CCN(CC(=O)N(C)Cc2ccsc2)CC1C (stereo unspecified)", "assayResult": -127}
{"compound": "Cc1c(C(=O)NC(C)CC(=O)c2cccs2)cnn1C (stereo unspecified)", "assayResult": -8.71}
{"compound": "COc1ccc(CN2CC[C@H]3CO[C@H](CNC(=O)N(C)C)[C@H]3C2)cc1", "assayResult": 1.07}
{"compound": "CS(=O)(=O)c1ccc(-c2nc(C(=O)N3CCCC3)n3ccccc23)cc1", "assayResult": 6}
{"compound": "CC[C@@]1(O)CCN(C(=O)CCc2cnn(C)c2)C[C@H]1O", "assayResult": -0.634}
{"compound": "COC1COC2(CCN(Cc3ccccc3C)CC2)C1 (stereo unspecified)", "assayResult": 2.84}
{"compound": "CC(Cn1cncc1-c1cnn(C2CCCCC2)c1)N1CCCCC1 (stereo unspecified)", "assayResult": 2.87}
{"compound": "CSc1ccc(NS(=O)(=O)c2cnn(C)c2)cn1", "assayResult": -4.69}
{"compound": "O=C(c1ccsc1)N1CCN2C[C@H](OCc3cccnc3)C[C@H]2C1", "assayResult": 0.59}
{"compound": "Cn1cc(CCNC(=O)NCc2ccc3c(c2)OCCO3)cn1", "assayResult": -10.7}
{"compound": "O=C(c1ccccn1)N1CCN(c2ccc(-n3cccc3)nn2)CC1", "assayResult": -13.7}
{"compound": "CN(C(=O)Cc1coc(-c2ccccc2)n1)C1(C#N)CCC1", "assayResult": 6.41}
{"compound": "CCN1CCOC(CNCc2c(Cl)nc3ccccn23)C1 (stereo unspecified)", "assayResult": 0.174}
{"compound": "O=C(Cc1c[nH]c2ncccc12)NCC(O)c1ccsc1 (stereo unspecified)", "assayResult": 5.46}
{"compound": "Cc1cc(C(=O)N(C)C)nc(C2(C)CCCN2c2ccnc(C)n2)n1 (stereo unspecified)", "assayResult": -7.49}
{"compound": "Cc1ccsc1C(=O)N1CC(C(=O)N2CCCC2)C2(CCOCC2)C1 (stereo unspecified)", "assayResult": 3.68}
{"compound": "O=S(=O)(C1CC1)N1CCO[C@H]2[C@H](OCC3CCCC3)CC[C@@H]21", "assayResult": -5.58}
{"compound": "CSc1ccccc1NC(=O)N1C[C@@H](N(C)C)[C@H](c2ccc(C)cc2)C1", "assayResult": -12}
{"compound": "c1cnn(CC2CCCCN2Cc2nc(-c3ccsc3)no2)c1 (stereo unspecified)", "assayResult": -12.2}
{"compound": "CCC(NS(=O)(=O)N1CCOCC1)c1ccccc1OC (stereo unspecified)", "assayResult": -45.1}
{"compound": "Cc1ccc(N(CC(=O)NCc2nnc3n2CCC3)S(C)(=O)=O)cc1", "assayResult": -4.66}
{"compound": "Cc1ccc(CNc2ccccc2SCCC(N)=O)s1", "assayResult": 10.6}
{"compound": "COc1cc2nc3n(c(=O)c2cc1OC)CCN(C(=O)C1CCC1)CC3", "assayResult": -8.8}
{"compound": "CN(C)C(C)(C)CNCc1c[nH]nc1-c1cc2ccccc2o1", "assayResult": -3.6}
{"compound": "Cc1cc2nc(C(C)C)cc(N3CCSCC3)n2n1", "assayResult": 3.24}
{"compound": "Cc1ccc2nc(C(=O)N3CCC(CCn4cccn4)CC3)cn2c1", "assayResult": -18.3}
{"compound": "N#Cc1ccccc1C(=O)N1C[C@H](CO)C[C@H](CN2CCCC2)C1", "assayResult": -17}
{"compound": "CCNC(=O)NC1CN(Cc2ccccc2N(C)C)C[C@@H]1OC (stereo partly specified)", "assayResult": -8.11}
{"compound": "Cc1n[nH]c(C)c1C1CCCN1C(=O)Cc1cccc(F)c1 (stereo unspecified)", "assayResult": 4.8}
{"compound": "CCn1ccnc1CN1CCN(CC(=O)NC(=O)NC2CC2)CC1", "assayResult": -3.3}
{"compound": "CCC(=O)N1CCc2[nH]cnc2C12CCN(C(=O)CCS(C)(=O)=O)CC2", "assayResult": -14.4}
{"compound": "CCC(C(=O)NCc1ccncc1)N(c1cccc(Cl)c1)S(C)(=O)=O (stereo unspecified)", "assayResult": -4.31}
{"compound": "Cc1nc[nH]c1CN1CCN(C(=O)c2cccs2)[C@H]2CS(=O)(=O)C[C@H]21", "assayResult": -0.0714}
{"compound": "COc1c(C(=O)NCc2cccnc2)nnn1Cc1ccccc1", "assayResult": 12.5}
{"compound": "O=C(c1cc[nH]n1)N(Cc1cccc(O)c1)CC1CC1", "assayResult": 8.27}
{"compound": "CCN1CCNC(=O)C12CCN(C(=O)c1ccccn1)CC2", "assayResult": -0.514}
{"compound": "Cc1ccccc1CNC(=O)N1CCC(n2cncn2)CC1", "assayResult": 2.54}
{"compound": "COc1ccc([C@@H]2CN(C(=O)c3cscn3)C[C@H]2C(=O)O)cc1", "assayResult": -18.2}
{"compound": "COCc1nc(C(=O)NS(=O)(=O)c2ccc(Cl)cc2F)cs1", "assayResult": 8.13}
{"compound": "O=c1ccc(-n2ccnc2)nn1CCNS(=O)(=O)c1ccc(Cl)s1", "assayResult": -1.36}
{"compound": "Cc1cc2c(cc1NC(N)=O)OCO2", "assayResult": 3.13}
{"compound": "CC(C)(C)c1cc(=O)n2c(n1)SCC(C(=O)NCc1ccccn1)C2 (stereo unspecified)", "assayResult": -6.88}
{"compound": "Cc1ccc(CNC(=O)c2cc(CN3CCC(O)CC3)on2)s1", "assayResult": -48.5}
{"compound": "Cc1cc(NC(=O)CN2CCCC2c2noc(C3CC3)n2)no1 (stereo unspecified)", "assayResult": -13}
{"compound": "COCC(=O)Nc1ccc2c(c1)CN(C(=O)c1ccco1)CC2", "assayResult": 7.58}
{"compound": "Cc1cnc(N2CCN3C[C@H](OCc4cccc(C)n4)C[C@H]3C2)nc1", "assayResult": -1.25}

###

cytotoxicity at 10 µM listing for selected compounds.
protocolDescription: Toxicity liver stage against HepG2, at 10uM
Format: cell-based
Design: test concentration 10 uM, cell line HepG2-A16-CD81EGFP
runConditions: human, HepG2-A16-CD81EGFP cells; read-out: INHIBITION

{"compound": "COc1ccc(C(=O)NCCC(N)=O)c(I)c1", "cytotoxicity at 10 µM (%)": 9.34}
{"compound": "OCCn1cc(CN2CCN(CCOc3ccc(F)cc3)CC2)cn1", "cytotoxicity at 10 µM (%)": -11.1}
{"compound": "O=C(c1ccc[nH]1)N1CC2(CCN(c3nccs3)C2)C1", "cytotoxicity at 10 µM (%)": 5.68}
{"compound": "O=C(NCCOc1ncc(Cl)cc1Cl)c1cccnc1", "cytotoxicity at 10 µM (%)": -3.23}
{"compound": "CN1CCCCC1c1cncc(N2CCC(O)CC2)n1 (stereo not given)", "cytotoxicity at 10 µM (%)": 2.54}
{"compound": "c1ncn(CC2CN(Cc3nc(-c4ccsc4)no3)CCO2)n1 (stereo not given)", "cytotoxicity at 10 µM (%)": -4.72}
{"compound": "Cc1cc2c(cc1CNC(Cc1cccs1)c1nccs1)OCO2 (stereo not given)", "cytotoxicity at 10 µM (%)": 6.76}
{"compound": "COc1cc(CC(=O)Nc2cccc(C(=O)N(C)C)n2)ccc1C", "cytotoxicity at 10 µM (%)": 2.25}
{"compound": "O=c1nc(SCc2ccc(Cl)cc2)c2c(n1CCO)CCC2", "cytotoxicity at 10 µM (%)": 12.3}
{"compound": "O=C1CN(C(=O)c2cc3c(F)cc(Br)cc3[nH]2)CCN1", "cytotoxicity at 10 µM (%)": 0.0723}
{"compound": "CCC(CO)N(C/C(C)=C/c1ccco1)Cc1ccsc1 (stereo not given)", "cytotoxicity at 10 µM (%)": 1.12}
{"compound": "CC(C)c1nnc2n1CCN(Cc1cc(Cl)c3c(c1)OCO3)C2", "cytotoxicity at 10 µM (%)": 0.0723}
{"compound": "N#Cc1cccc(S(=O)(=O)CCN2CCOC2=O)c1", "cytotoxicity at 10 µM (%)": -2.32}
{"compound": "NC(=O)c1cc(C2CCCN(C(=O)CCc3cccs3)C2)n[nH]1 (stereo not given)", "cytotoxicity at 10 µM (%)": 2.33}
{"compound": "COc1cccc(CNCc2ccc(F)cc2Cl)c1O", "cytotoxicity at 10 µM (%)": -3.3}
{"compound": "CC(C)=CCN1C[C@@H]2CC[C@H]1CN(C(=O)c1ccc3c(c1)OCO3)C2", "cytotoxicity at 10 µM (%)": -0.988}
{"compound": "O=S1(=O)c2ccccc2OCC2(CCN(CCO)CC2)CN1CC1CC1", "cytotoxicity at 10 µM (%)": 0.864}
{"compound": "Cc1nn(C)c(C)c1NC(=O)CN1CCOC(Cn2cccn2)C1 (stereo not given)", "cytotoxicity at 10 µM (%)": -1.81}
{"compound": "CNC(=O)NC(=O)CCN1CCOC(c2ccc(Br)cc2)C1 (stereo not given)", "cytotoxicity at 10 µM (%)": -2.42}
{"compound": "c1ccc(-c2nccc(N3CCc4c(ncn4C4CC4)C3)n2)cc1", "cytotoxicity at 10 µM (%)": 7.22}
{"compound": "O=C(Nc1ccc2c(c1)OCO2)N1CCN(CCn2cccn2)CC1", "cytotoxicity at 10 µM (%)": 0.741}
{"compound": "Cc1ccc(CN2C[C@@H]3CN(c4ncccn4)C[C@@H]3C2)cc1", "cytotoxicity at 10 µM (%)": -2.02}
{"compound": "COc1ccc(CNC(=O)NC2CCN(c3ccccc3)C2=O)cc1 (stereo not given)", "cytotoxicity at 10 µM (%)": -2.98}
{"compound": "OC1CCCOC12CCN(CCCOc1ccccc1F)CC2 (stereo not given)", "cytotoxicity at 10 µM (%)": 3.4}
{"compound": "Cc1cc(NC2CCC(=O)N(C)C2)n2nccc2n1 (stereo not given)", "cytotoxicity at 10 µM (%)": -0.714}
